Molecular target: T1, human soluble αvβ5 protein (extracellular domains of human αv and β5 integrin subunits) (human, UniProt P06756 31-992; P18084 24-719)
T1 construct: also called biotin-αvβ5; hsαvβ5
T1 sequence (P06756 31-992 limits assumed, chain 1 of 2): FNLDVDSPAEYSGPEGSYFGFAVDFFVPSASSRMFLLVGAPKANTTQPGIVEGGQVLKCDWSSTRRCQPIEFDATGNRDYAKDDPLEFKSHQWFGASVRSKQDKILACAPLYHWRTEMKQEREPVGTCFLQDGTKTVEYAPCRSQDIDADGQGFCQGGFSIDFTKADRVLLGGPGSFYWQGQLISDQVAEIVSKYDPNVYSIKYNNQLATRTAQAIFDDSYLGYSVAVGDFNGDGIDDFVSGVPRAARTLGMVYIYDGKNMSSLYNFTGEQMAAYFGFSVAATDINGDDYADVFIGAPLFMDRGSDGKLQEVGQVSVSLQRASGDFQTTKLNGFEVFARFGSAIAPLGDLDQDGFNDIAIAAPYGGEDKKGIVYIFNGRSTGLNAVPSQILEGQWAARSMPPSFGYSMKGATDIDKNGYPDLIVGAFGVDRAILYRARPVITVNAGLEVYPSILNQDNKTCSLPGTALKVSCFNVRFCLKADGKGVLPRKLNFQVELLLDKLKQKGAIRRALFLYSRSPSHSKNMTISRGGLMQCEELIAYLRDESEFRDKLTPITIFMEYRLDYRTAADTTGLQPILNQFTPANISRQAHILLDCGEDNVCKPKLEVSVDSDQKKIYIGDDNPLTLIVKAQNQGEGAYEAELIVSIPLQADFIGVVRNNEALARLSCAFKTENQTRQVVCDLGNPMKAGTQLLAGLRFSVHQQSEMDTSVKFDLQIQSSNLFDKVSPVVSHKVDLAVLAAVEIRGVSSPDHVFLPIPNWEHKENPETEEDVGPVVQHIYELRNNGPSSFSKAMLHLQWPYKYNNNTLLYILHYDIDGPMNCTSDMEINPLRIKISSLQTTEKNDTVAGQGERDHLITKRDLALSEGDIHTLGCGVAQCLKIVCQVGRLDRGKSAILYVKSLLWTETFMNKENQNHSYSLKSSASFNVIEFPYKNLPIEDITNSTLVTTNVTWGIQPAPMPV
T1 sequence (P18084 24-719 limits assumed, chain 2 of 2): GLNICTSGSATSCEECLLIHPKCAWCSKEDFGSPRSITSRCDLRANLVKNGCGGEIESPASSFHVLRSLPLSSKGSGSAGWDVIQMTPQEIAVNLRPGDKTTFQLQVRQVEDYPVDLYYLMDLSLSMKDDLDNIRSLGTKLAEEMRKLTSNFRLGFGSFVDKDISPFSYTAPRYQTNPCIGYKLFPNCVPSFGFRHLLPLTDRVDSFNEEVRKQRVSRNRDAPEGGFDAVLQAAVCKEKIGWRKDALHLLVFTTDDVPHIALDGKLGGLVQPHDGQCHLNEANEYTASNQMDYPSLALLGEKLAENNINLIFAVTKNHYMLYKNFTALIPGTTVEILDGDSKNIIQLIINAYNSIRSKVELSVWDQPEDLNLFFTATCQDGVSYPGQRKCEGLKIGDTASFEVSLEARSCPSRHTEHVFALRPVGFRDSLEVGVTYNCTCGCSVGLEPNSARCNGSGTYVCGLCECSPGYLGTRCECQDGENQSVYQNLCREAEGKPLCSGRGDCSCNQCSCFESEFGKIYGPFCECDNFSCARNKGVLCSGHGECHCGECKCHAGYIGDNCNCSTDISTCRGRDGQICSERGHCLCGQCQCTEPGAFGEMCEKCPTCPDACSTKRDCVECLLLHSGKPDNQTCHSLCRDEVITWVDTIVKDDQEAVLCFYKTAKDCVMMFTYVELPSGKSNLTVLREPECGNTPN
Experiment: competition ELISA against 1 nM murine ALULA on coated soluble human αvβ5
PROPERTY_NAME: pIC50
Convention used: pIC50 is expressed as -log10 of the molar concentration.

Entry VH4/VL1 Agly-hIgG1(T299A) (antibody, V domains shown, also called H4/L1) VH: EVQVVQSGGGLVKPGESLRLSCKASGYTFTSYWMHWVKQAPGKGLEWVGAIYPGNSDTSYNQKFKGKFTISADTSPNTAYLQMNSLKTEDTAVYYCTTTTYGYDWFAYWGQGTLVTVSS VL: DIQMTQSPSSLSASVGDRVTMTCKSSQSVLYSSNQKNYLAWYQQKPGKAPKLLIYWASTRESGVPDRFSGSGSGTDFTLTISSLQPEDFATYYCHQYLSSLTFGQGTKLEIK : reported pIC50 = ? 8.66

How about VH0/VL0 Agly-hIgG1(T299A) (antibody, V domains shown, also called H0/L0) VH: EVQLVESGGGLVKPGGSLRLSCAASGYTFTSYWMHWVRQAPGKGLEWVGAIYPGNSDTSYNQKFKGRFTISRDDSKNTLYLQMNSLKTEDTAVYYCTTTTYGYDWFAYWGQGTLVTVSS VL: DIQMTQSPSSVSASVGDRVTITCKSSQSVLYSSNQKNYLAWYQQKPGKAPKLLIYWASTRESGVPSRFSGSGSGTDFTLTISSLQPEDFATYYCHQYLSSLTFGQGTKVEIK ? 7.74

Queued: VH2/VL2 Agly-hIgG1(T299A) (antibody, V domains shown, also called H2/L2 (Agly-IgG1)) VH: EVQVVQSGGGLVKPGESLRLSCAASGYTFTSYWMHWVKQAPGKGLEWVGAIYPGNSDTSYNQKFKGKFTISADTSSNTAYLQMNSLKTEDTAVYYCTTTTYGYDWFAYWGQGTLVTVSS VL: NIQMTQSPSSLSASVGDRVTMSCKSSQSVLYSSNQKNYLAWYQQKPGKSPKLLIYWASTRESGVPDRFTGSGSGTDFTLTISSLQPEDFATYYCHQYLSSLTFGQGTKLEIK 8.55

These data points were gathered from patent US20170362324A1.
